Values were extracted from paper PMC10314922.

- TARGET OR TEST SYSTEM: SERCA2a (Sus scrofa)
- Construct: Cardiac SR vesicles were isolated from fresh porcine left ventricular tissue using differential centrifugation; from tissue; host or cells: porcine left ventricular tissue (cardiac SR vesicles)
- EXPERIMENT NOTES: NADH-linked Ca2+-ATPase activity assay in pig cardiac SR (pCSR) vesicles
- Format: biochemical
- ASSAY SETUP: [Ca2+]MAX (pCa5.4)
PARAMETER MEASURED: EC50 (µM)
Report as a plain number; the unit µM is understood.

Solved entries:
INSERT INTO measurements (compound, parameter_measured, measured_number) VALUES
  ('COC(=O)CSc1ncc(-c2ccc(F)cc2)c(C2CCCN(C(=O)c3cccc(F)c3)C2)n1 (stereo not shown)', 'EC50', 3.2),
  ('c1ccc(-c2cc(CN3CCN(c4ncnc5ccccc45)CC3)on2)cc1', 'EC50', 15),
  ('O=C(c1cc(COc2ccc3c(c2)CCCC3)on1)N1CCC(c2ccncc2)CC1', 'EC50', 8.4);

// CC1Cc2cc(CNC(=O)c3cc(C(C)C)nn3C)ccc2O1 (stereo not shown) : EC50 value = 24

// OCC1(Cc2ccccc2F)CCCN(Cc2cc3c(cc2Cl)OCO3)C1 (stereo not shown) : EC50 value = 3.8

// COc1ccc(C(=O)C2CCCN(Cc3nc(-c4ccc(F)cc4)cs3)C2)c(OC)c1 (stereo not shown) : EC50 value = 8.3

// CCc1ccc(S(=O)(=O)N2CCCC(C(=O)c3sccc3C)C2)cc1 (stereo not shown) : EC50 value = 13

----------
- TARGET OR TEST SYSTEM: SERCA2a (Sus scrofa, UniProt P11607)
- Construct: Cardiac SR vesicles were isolated from fresh porcine left ventricular tissue using differential centrifugation; from tissue; host or cells: porcine left ventricular tissue (cardiac SR vesicles)
- Sequence (P11607 1-997 isoform P11607-2): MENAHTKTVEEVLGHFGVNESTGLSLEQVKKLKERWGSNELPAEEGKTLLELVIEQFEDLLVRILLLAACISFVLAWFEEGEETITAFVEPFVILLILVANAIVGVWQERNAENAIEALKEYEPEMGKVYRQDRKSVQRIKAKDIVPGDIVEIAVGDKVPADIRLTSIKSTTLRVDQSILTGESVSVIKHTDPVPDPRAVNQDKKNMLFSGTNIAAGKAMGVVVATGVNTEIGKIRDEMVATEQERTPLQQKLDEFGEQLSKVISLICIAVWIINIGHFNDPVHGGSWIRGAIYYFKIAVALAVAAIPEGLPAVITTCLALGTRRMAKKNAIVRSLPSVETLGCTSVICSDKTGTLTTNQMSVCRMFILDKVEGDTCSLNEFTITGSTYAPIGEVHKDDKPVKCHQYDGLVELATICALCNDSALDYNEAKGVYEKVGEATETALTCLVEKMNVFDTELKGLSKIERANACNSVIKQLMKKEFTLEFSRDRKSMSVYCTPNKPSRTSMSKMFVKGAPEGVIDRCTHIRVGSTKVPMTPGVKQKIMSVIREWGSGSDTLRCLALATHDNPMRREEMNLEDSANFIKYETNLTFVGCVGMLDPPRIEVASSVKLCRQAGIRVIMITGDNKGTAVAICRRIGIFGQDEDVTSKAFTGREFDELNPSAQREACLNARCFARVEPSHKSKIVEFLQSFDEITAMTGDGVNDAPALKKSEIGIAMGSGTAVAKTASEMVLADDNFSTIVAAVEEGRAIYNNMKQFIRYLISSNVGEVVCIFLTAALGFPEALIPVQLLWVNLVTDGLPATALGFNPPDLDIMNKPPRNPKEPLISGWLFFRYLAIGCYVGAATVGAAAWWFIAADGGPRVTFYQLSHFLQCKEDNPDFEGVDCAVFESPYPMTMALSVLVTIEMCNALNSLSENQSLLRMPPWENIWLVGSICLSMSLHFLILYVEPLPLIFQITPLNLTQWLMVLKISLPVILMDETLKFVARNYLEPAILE
- EXPERIMENT NOTES: NADH-linked Ca2+-ATPase activity assay in pig cardiac SR (pCSR) vesicles
- Type: biochemical
- ASSAY SETUP: [Ca2+]MAX (pCa5.4), concentration yielding 10% effect
PARAMETER MEASURED: Ca2+-ATPase C10 (µM)
Report as a plain number; the unit µM is understood.

Solved entries:
INSERT INTO measurements (compound, target_or_test_system, parameter_measured, unit, measured_number) VALUES
  ('OCC1(Cc2ccccc2F)CCCN(Cc2cc3c(cc2Cl)OCO3)C1 (centres unmarked)', 'SERCA2a (Sus scrofa, UniProt P11607)', 'Ca2+-ATPase C10', 'µM', 1.0),
  ('COC(=O)CSc1ncc(-c2ccc(F)cc2)c(C2CCCN(C(=O)c3cccc(F)c3)C2)n1 (centres unmarked)', 'SERCA2a (Sus scrofa, UniProt P11607)', 'Ca2+-ATPase C10', 'µM', 0.8),
  ('c1ccc(-c2cc(CN3CCN(c4ncnc5ccccc45)CC3)on2)cc1', 'SERCA2a (Sus scrofa, UniProt P11607)', 'Ca2+-ATPase C10', 'µM', 50.0),
  ('CCc1ccc(S(=O)(=O)N2CCCC(C(=O)c3sccc3C)C2)cc1 (centres unmarked)', 'SERCA2a (Sus scrofa, UniProt P11607)', 'Ca2+-ATPase C10', 'µM', 6.3),
  ('COc1ccc(C(=O)C2CCCN(Cc3nc(-c4ccc(F)cc4)cs3)C2)c(OC)c1 (centres unmarked)', 'SERCA2a (Sus scrofa, UniProt P11607)', 'Ca2+-ATPase C10', 'µM', 4.3),
  ('O=C(c1cc(COc2ccc3c(c2)CCCC3)on1)N1CCC(c2ccncc2)CC1', 'SERCA2a (Sus scrofa, UniProt P11607)', 'Ca2+-ATPase C10', 'µM', 11.0),
  ('O=S(=O)(NCc1ccccc1)N1CCc2ccc(C(F)(F)F)cc2C1', 'SERCA2a (Sus scrofa, UniProt P11607)', 'Ca2+-ATPase C10', 'µM', 6.2);

The reported SERCA2a (Sus scrofa, UniProt P11607) Ca2+-ATPase C10 of CCn1nc(C)c(CN2CCCC(Nc3ccc(C(C)C)cc3)C2)c1C (centres unmarked) is 25
